# study-target: hsTRPA1 (Homo sapiens, UniProt O75762)
# Construct: HEK cells transfected with either full-length hsTRPA1 or channels containing deletions; porcine teschovirus-1 2A self-cleaving peptide (p2A) linking the channel to dTomato in a bicistronic vector (cleaved yes); host or cells: HEK 293T cells expressing human alpha-v beta-3 integrin and stably expressing GCaMP6f
# Sequence (O75762 whole entry): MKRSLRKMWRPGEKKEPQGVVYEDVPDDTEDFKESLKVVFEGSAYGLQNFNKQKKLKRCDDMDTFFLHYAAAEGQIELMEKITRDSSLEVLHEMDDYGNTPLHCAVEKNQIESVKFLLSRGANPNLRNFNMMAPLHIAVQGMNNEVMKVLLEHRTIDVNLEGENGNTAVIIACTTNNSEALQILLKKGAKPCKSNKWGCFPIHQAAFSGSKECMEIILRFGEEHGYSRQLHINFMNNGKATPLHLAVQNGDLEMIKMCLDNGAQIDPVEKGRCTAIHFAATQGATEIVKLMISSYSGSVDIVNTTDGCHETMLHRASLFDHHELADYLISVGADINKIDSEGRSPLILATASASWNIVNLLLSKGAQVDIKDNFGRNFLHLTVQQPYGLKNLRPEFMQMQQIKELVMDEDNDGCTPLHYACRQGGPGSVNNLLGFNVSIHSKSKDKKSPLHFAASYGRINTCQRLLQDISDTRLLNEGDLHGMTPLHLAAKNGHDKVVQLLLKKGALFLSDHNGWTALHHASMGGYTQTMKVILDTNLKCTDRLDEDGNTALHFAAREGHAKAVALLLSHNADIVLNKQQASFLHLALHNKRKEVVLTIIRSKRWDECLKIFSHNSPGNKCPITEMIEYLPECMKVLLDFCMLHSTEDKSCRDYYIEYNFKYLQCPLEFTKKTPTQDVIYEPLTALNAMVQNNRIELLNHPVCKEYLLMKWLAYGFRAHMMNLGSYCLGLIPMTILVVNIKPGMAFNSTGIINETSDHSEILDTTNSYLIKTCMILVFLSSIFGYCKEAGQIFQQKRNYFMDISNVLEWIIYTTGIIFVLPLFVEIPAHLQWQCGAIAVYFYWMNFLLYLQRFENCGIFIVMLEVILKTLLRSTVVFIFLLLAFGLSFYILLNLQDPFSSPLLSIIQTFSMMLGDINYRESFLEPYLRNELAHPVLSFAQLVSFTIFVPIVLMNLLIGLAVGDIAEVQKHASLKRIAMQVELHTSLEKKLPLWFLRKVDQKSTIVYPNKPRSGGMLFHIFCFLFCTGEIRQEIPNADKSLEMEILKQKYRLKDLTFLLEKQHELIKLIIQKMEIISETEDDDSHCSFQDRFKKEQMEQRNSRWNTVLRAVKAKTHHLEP
# run-description: Effect of agents on AITC-triggered GCaMP6f response of hsTRPA1-expressing HEK cells
# Type: cell-based
# experimental-setup: AITC 33 μM; after incubation with agent; versus vehicle
measured-property: Effect on AITC-triggered responses of hsTRPA1-expressing HEK cells

molecule	study-target	reported-result
C/C1=C\[C@H](C)C[C@H](C)OC(=O)C[C@H](c2ccc(O)cc2)NC(=O)[C@@H](Cc2c(Br)[nH]c3ccccc23)N(C)C(=O)[C@H](C)NC(=O)[C@@H](C)C1 [jasplakinolide]	hsTRPA1 (Homo sapiens, UniProt O75762)	significantly reduced
C/C1=C/C(=O)O[C@@H]2C[C@@H](CC[C@H](C)/C=C\C=C\CC1)O[C@@](O)([C@@H]1CSC(=O)N1)C2 [latrunculin A]	hsTRPA1 (Homo sapiens, UniProt O75762)	significantly reduced
